system: T1, Abeta42 beta amyloid peptide (UniProt P05067 672-713)
T1 construct: domain: Abeta42; also called Aβ42; beta amyloid (Covance)
T1 sequence (P05067 672-713 limits assumed): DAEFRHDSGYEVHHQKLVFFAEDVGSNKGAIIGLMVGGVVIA
procedure-text: competition ELISA on coated beta amyloid, purified antibody, n=2; competitor biotinylated chimeric mouse 6E10
test-readout: IC50 (µg/mL)
One number for each entry, in µg/mL.

// for each binder in input: emit IC50
1. composite human antibody variant VH5/VK1 (antibody, human IgG1, V domains shown, Human IgG1/kappa (pANT15/pANT13)) VH: QVQLVQSGAEVKKPGASVKVSCTASGFNIKDTYIHWVRQARGQRLEWIGRFDPVNVNTRYDSRFRGRVTITSDASTSTAYMELSSLRSEDTAVYYCSRSYYNGRRRFTYWGQGTLVTVSS VL: DIVMTQSPDSLTVSLGERATINCKASQSLLSSGNQKNYLTWYQQKPGQPPKLLIYWASIRESGVPDRFTGSGSGTFFTLTISSLQAEDVAVYYCQNDYNYPFTFGQGTKLEIK
2. chimeric 6E10 antibody (mouse 6E10 V regions, human IgG1/kappa constant regions) (antibody, V domains shown, also called chimeric mouse 6E10 antibody; chimeric antibody) VH: EVQLQQSGAELVKPGASVKLSCTASGFNIKDTYIHWVKQRPEQGLEWIGRFDPVNVNTRYDSRFRGKATITSDASSNTAYLHLNSLTSEDTAVYYCSRSYYNGRRRFTYWGQGTLVTVSA VL: DIVMTQSPSSLTVTAGEKVALTCKASQSLLSSGNQKNYLTWYQQKPGQPPKLLIYWASIRESGVPDRFTGSGSGTFFTLTISSVQAEDLAVYYCQNDYNYPFTFGSGTKLEIK

1: 3.3; 2: 3.6

These measurements were taken from patent US20110202000A1.
